FYI, the data here is from patent US8445636B2.

- Tested on: Staphylococcus aureus ATCC 6538P
- Format: cell-based
- measurement_setup: ATCC 6538, pH 7.4
Non-standard residues stand in square brackets, D forms with d. Residues, ends and D or L forms follow the SMILES beside them. *: point of attachment. Palmitoyl = CCCCCCCCCCCCCCCC(=O)*; Lauroyl = CCCCCCCCCCCC(=O)*
endpoint: Minimal Inhibitory Concentration, S. aureus ATCC 6538P (µM)
All answers are understood in µM, so give the number only.

CCCCCCCCCCCC(=O)N[C@H](CC(C)C)C(=O)N[C@@H](CCCCN)C(=O)N[C@@H](CCCCN)C(=O)N[C@H](CC(C)C)C(=O)N[C@H](CC(C)C)C(=O)N[C@@H](CCCCN)C(=O)N[C@@H](CCCCN)C(=O)N[C@H](CC(C)C)C(=O)N[C@H](CC(C)C)C(=O)N[C@@H](CCCCN)C(=O)N[C@@H](CCCCN)C(=O)N[C@H](CC(C)C)C(N)=O [lipopeptide 22] (Lauroyl-[dL]KK[dL][dL]KK[dL][dL]KK[dL]-NH2) ... 12.5

// moving on: another record for Minimal Inhibitory Concentration, S. aureus ATCC 6538P
State its Minimal Inhibitory Concentration, S. aureus ATCC 6538P: CCCCCCCCCCCCCCCC(=O)N[C@@H](CCC(=O)O)C(=O)N[C@@H](CCCCN)C(=O)N[C@H](CCCCN)C(=O)N[C@@H](CCCCN)C(N)=O [PA-EKKK, Palmitoyl-Glu-Lys-D-Lys-Lys-NH2] (Palmitoyl-EK[dK]K-NH2) 12.5

###

Measured Minimal Inhibitory Concentration, S. aureus ATCC 6538P, listed per entry.
- Test system: Staphylococcus aureus ATCC 6538P
- Type: cell-based
- measurement_setup: ATCC 6538, pH 7.4
Non-standard residues stand in square brackets, D forms with d. Residues, ends and D or L forms follow the SMILES beside them. *: point of attachment. Palmitoyl = CCCCCCCCCCCCCCCC(=O)*; Myristoyl = CCCCCCCCCCCCCC(=O)*; Decanoyl = CCCCCCCCCC(=O)*
Give the value, in units of µM, as a plain number.

CCCCCCCCCCCCCCCC(=O)N[C@@H](CCCCN)C(=O)N[C@@H](CC(C)C)C(=O)N[C@H](CC(C)C)C(=O)N[C@@H](CCCCN)C(N)=O [PA-KLLK, Palmitoyl-Lys-Leu-D-Leu-Lys-NH2] (Palmitoyl-KL[dL]K-NH2) ... 3.12
CCCCCCCCCCCCCC(=O)N[C@H](CC(C)C)C(=O)N[C@@H](CCCCN)C(=O)N[C@@H](CCCCN)C(=O)N[C@H](CC(C)C)C(=O)N[C@H](CC(C)C)C(=O)N[C@@H](CCCCN)C(=O)N[C@@H](CCCCN)C(=O)N[C@H](CC(C)C)C(=O)N[C@H](CC(C)C)C(=O)N[C@@H](CCCCN)C(=O)N[C@@H](CCCCN)C(=O)N[C@H](CC(C)C)C(N)=O [lipopeptide 23] (Myristoyl-[dL]KK[dL][dL]KK[dL][dL]KK[dL]-NH2) ... 50
CCCCCCCCCCCCCCCC(=O)N[C@@H](CCCCN)C(=O)N[C@@H](C)C(=O)N[C@H](C)C(=O)N[C@@H](CCCCN)C(N)=O [PA-KAAK, Palmitoyl-Lys-Ala-D-Ala-Lys-NH2] (Palmitoyl-KA[dA]K-NH2) ... 6.25

Return value of Minimal Inhibitory Concentration, S. aureus ATCC 6538P for input CCCCCCCCCCCCCCCC(=O)N[C@@H](CCCCN)C(=O)N[C@H](CCCCN)C(=O)N[C@@H](CCC(=O)O)C(=O)N[C@@H](CCCCN)C(N)=O [PA-KKEK, Palmitoyl-Lys-D-Lys-Glu-Lys-NH2] (Palmitoyl-K[dK]EK-NH2) , no commentary. 25

# return recorded Minimal Inhibitory Concentration, S. aureus ATCC 6538P for input CCCCCCCCCCCCCCCC(=O)N[C@@H](CCCNC(=N)N)C(=O)N[C@@H](CC(C)C)C(=O)N[C@H](CC(C)C)C(=O)N[C@@H](CCCNC(=N)N)C(N)=O [PA-RLLR, Palmitoyl-Arg-Leu-D-Leu-Arg-NH2] (Palmitoyl-RL[dL]R-NH2) 25

Dear colleague, please send me the reported Minimal Inhibitory Concentration, S. aureus ATCC 6538P for CCCCCCCCCC(=O)N[C@H](CC(C)C)C(=O)N[C@@H](CCCCN)C(=O)N[C@@H](CCCCN)C(=O)N[C@H](CC(C)C)C(=O)N[C@H](CC(C)C)C(=O)N[C@@H](CCCCN)C(=O)N[C@@H](CCCCN)C(=O)N[C@H](CC(C)C)C(=O)N[C@H](CC(C)C)C(=O)N[C@@H](CCCCN)C(=O)N[C@@H](CCCCN)C(=O)N[C@H](CC(C)C)C(N)=O [lipopeptide 21] (Decanoyl-[dL]KK[dL][dL]KK[dL][dL]KK[dL]-NH2) when you can. 6.25
